QUANTITY: melting point

Examples with answers:
MOLECULE | melting point
CCOC(=O)C1=C(C)NC(CN2C(=O)c3ccccc3C2=O)=C(C(=O)OCC)C1c1ccccc1 (configuration not stated) | 169 to 170 °C
CC(C)(C)c1cc(C(=O)c2ncco2)cc(C(C)(C)C)c1O | 127 to 130 °C

Prompt: melting point for O=C1NC(=O)C(c2cn3c4c(cccc24)CCC3)C1c1ccc(OCc2ccccc2)cc1 (configuration not stated) ?
Completion: 91 to 93 °C

Prompt: # get_value(readout='melting point', item= C[C@H](Cn1ncc2ccc3c(c21)C=CCO3)O[Si](C)(C)C(C)(C)C )
Completion: 58 to 59 °C

Prompt: Returns the measured melting point for the input molecule. Input: Cc1cc(Br)cnc1CCCCNC1=NS(=O)(=O)c2cc(S(N)(=O)=O)ccc21
Completion: 219 to 221 °C

----------
QUANTITY: melting point

Example results:
MOLECULE | QUANTITY | RESULT_VALUE
O=c1oc(=O)c2ccc3c4ccccc4sc4ccc1c2c43 | melting point | 315 to 317 °C
COc1ccc(C(=O)Nc2ccc(N3CCCC3)cc2C(C)=O)cc1 | melting point | 174 to 175 °C
O=C1C(Cc2ccccc2C(F)F)c2ccccc2C12COc1cc3c(cc12)OCCO3 (stereo unspecified) | melting point | 191 to 193 °C
N#CC(C(=O)Cl)=C(c1ccccc1)c1ccccc1 | melting point | 157 to 158 °C
COC(=O)CCC(=O)c1cc2c(s1)CCc1ccccc1C2=O | melting point | 97 to 98 °C

Prompt: Could you share which melting point value was measured for Cc1ccc(-c2cc(C(=O)C=Cc3ccc(C(=O)O)cc3)cc(C(C)(C)C)c2OCc2ccccc2)cc1 ?
Completion: 208 °C

----------
# melting point annotations

Solved entries (count: 5):
COMPOUND_STRUCTURE | melting point
COc1ccc(C(=O)c2cc3ccccc3o2)cc1 | 93 to 94 °C
O=C(CBr)c1ccc(Cl)cc1OCc1ccccc1 | 75 to 78 °C
Cc1c(-c2ccccc2)nc2ccc(-c3cccc(CO)c3)cn12 | 222 to 223 °C
CN(CCCNC(=O)COc1nc2ccccc2s1)Cc1ccc(Cl)c(Cl)c1 | 113 to 115 °C
Cn1cc2c(O)cc(-c3ccccc3)nc2n1 | 241 to 243 °C

Prompt: Would you kindly share the measured melting point for O=C(NCc1cc[nH]n1)c1ccnc(N2CCN(Cc3ccc(F)cc3)C2=O)c1 ?
Completion: 178 to 180 °C

Prompt: What measured melting point goes with COc1ncc(Br)cc1/C=C/C(=O)c1ccc(Cl)cc1 ?
Completion: 168 to 172 °C

----------
QUANTITY: melting point (°C)

COMPOUND_STRUCTURE | QUANTITY | UNIT_STRING | RESULT_VALUE
CC(=O)Nc1ccc(N2CCC(N(C)Cc3ccccc3)CC2)cc1 | melting point | °C | 147
CN1CCC(C2c3ccccc3C=Cc3ccccc32)CC1 | melting point | °C | 127

----------
QUANTITY: melting point

Solved entries (count: 4):
MOLECULE | melting point
COC(=O)C1Oc2ccc(Oc3ccc(Cl)cc3)cc2C(C)(c2ccccc2)O1 (centres undefined) | 100 °C
O=C1Cn2nc(-c3ccc(F)cc3)c(-c3ccncc3)c2N1 | > 250 °C
CC(=O)N1CCc2cc(S(=O)(=O)n3c(CCC(=O)O)cc4nc(Cl)ccc43)ccc21 | 216 °C
CC1CCN(c2nc(-c3ncccn3)cc(Cl)c2-c2c(F)cccc2Cl)CC1 | 129 °C

Prompt: Query: melting point; subject: COc1cc(OC)c(N2CCCC2)cc1/C=C/C(=O)c1ccc(S(=O)(=O)NCCCn2ccnc2)cc1
Completion: 140 to 143 °C

Prompt: Entry Cc1c(-c2ccccc2)nn(N)c1OCCN1CCOCC1 has what melting point?
Completion: 96 °C

Prompt: Requested read-out: melting point. Entry: COc1cc(N)c(C)c(OC)c1OC
Completion: 49 to 51 °C

Prompt: Any idea what melting point was measured for O=C(CC1CCNCC1)c1ccc(N2CCCC2)cc1 ?
Completion: 144 to 145 °C

Prompt: Item under review: C#Cc1ccc(C23OCC(c4ccc(F)c(F)c4)(CO2)CO3)cc1 . Reported melting point?
Completion: 204 to 205 °C

Prompt: Can you look up the measured melting point of COC(=O)COc1ccc(O)c(C(C)(C)C)c1 for me?
Completion: 87 to 89 °C

Prompt: State the recorded melting point for this entry: CCCCc1nc2c(N)nc3cccnc3c2n1CCNC(=O)CC(C)CCC=C(C)C (centres undefined)
Completion: 163 to 164 °C

Prompt: Query: melting point; subject: Cc1cccc(Cl)c1-n1nc(C(C)C)c(C(N)=O)c1N
Completion: 72 to 74 °C

Prompt: Which melting point value is on record for C[C@@H](Nc1ncnc2[nH]c(-c3ccc(CN4CCN(C(=O)OC(C)(C)C)CC4)cc3)cc12)c1ccccc1 ?
Completion: 244 to 246 °C

Prompt: Look up melting point for this molecule: CCCN(CCC)C(=O)Cn1c(-c2ccc(C)s2)nc2cccnc21
Completion: 125 to 127 °C

Prompt: Fill blank: measured melting point of the molecule O=C(c1cccnc1)N1CCC(c2cccc(Cl)c2)=N1 is ____.
Completion: 124 to 126 °C

Prompt: Which melting point reading was recorded for the molecule CC(C)(C)OC(=O)Nc1ncc(C=O)s1 ?
Completion: 173 to 175 °C

Prompt: Entry under review: CN(Cc1cc(C(F)(F)F)cc(C(F)(F)F)c1)C(=O)c1c(-c2ccc(F)cc2)c2ccncc2c(=O)n1C . Reported melting point?
Completion: 179 to 181 °C

Prompt: Any idea what its melting point is? The molecule is CSc1ccc(C(C)=Cc2ccc3ccccc3c2)cc1
Completion: 161 °C

Prompt: Query (molecule): CC(=O)NC[C@H]1CN(c2ccc(N3CCC(F)(F)CC3)c(F)c2)C(=O)O1 ; field requested: melting point
Completion: 192 to 194 °C

Prompt: Looking for the measured melting point of OC(CCNC1=NCCCN1)c1ccccc1 (centres undefined) , can you help?
Completion: 130 to 135 °C

----------
Catalogue of melting point readings, one per entry.

COMPOUND | melting point
CC(=O)Oc1ccc(C(=O)O)cc1Cl | 152 to 159 °C
CC(=O)c1cn(C)c2ccc(F)cc12 | 158 to 160 °C
Cc1cc(-c2nc3cccnn3c2-c2ccnc(NC(=O)c3ccc4ncsc4c3)c2)ccc1F | 252 to 253 °C
CCOc1ccc(Br)c(F)c1Cl | 65.4 to 66.1 °C
COc1ccc(C2CC(=O)N(C)C2)cc1OC (stereo unspecified) | 69 °C
O=C(Nc1cccc(C(F)(F)F)c1)c1cccnc1NCCc1ccncc1 | 128 to 138 °C

Prompt: What value of melting point has been recorded for this entry: CC1(C)COC(c2c(F)cccc2C2(C)CCCC2)=N1
Completion: 116 to 117 °C

Prompt: Requested field: melting point. Item: CC(C)c1ccc(-c2csc(-c3cccc(C(=O)O)c3)c2)cc1
Completion: 220 to 222 °C

Prompt: Form field: reported melting point of CCCCOC(=O)c1ccccc1OC(=O)N(C)SN(C)C(=O)ON=C(C)SC
Completion: 68 to 74 °C

Prompt: Which melting point is reported for this compound? COc1ccc(CCNC(C)(C)CO)cc1
Completion: 114 to 115 °C

Prompt: Recorded melting point of O=C1NCC(CN2C(=O)C3(COc4cc5c(cc43)OCO5)c3ccccc32)O1 (stereo unspecified) , please.
Completion: 195 to 202 °C

----------
Catalogue of melting point values

Illustrative cases are given below, each with its answer.
MOLECULE | QUANTITY | RESULT_VALUE
CCc1cnc2c(NC(=O)c3c(Cl)cccc3Cl)cccc2c1C(=O)O | melting point | 231 to 233 °C
O=C(O)c1cc(Cl)cs1 | melting point | 138 °C
Cc1c(C(=O)c2sc(Nc3ccc(N4CCOCC4)cc3)nc2N)ncn1C | melting point | > 300 °C
CCOC(=O)CC(=O)Cc1ccc(OC)c([N+](=O)[O-])c1 | melting point | 87 to 88 °C
CCC1CSC(CCc2ccccc2)(Cn2ccnc2)S1 (configuration not stated) | melting point | 115 to 118 °C
COC(=O)c1cc(-c2ccccc2)c(=O)n2c1-c1sccc1CN2C | melting point | 180 to 181 °C
Nc1nc[nH]c1-c1n[nH]c(-c2ccc(-c3ccccc3)cc2)n1 | melting point | 230 °C
Cc1ccc(S(=O)(=O)c2ccccc2)nc1 | melting point | 117 to 118 °C
O=C(CN1CCC(Cc2ccccc2)CC1)Nc1ccc2c(c1)CC(=O)N2 | melting point | 166 to 170 °C
CC(OCCO)n1cc(F)c(=O)[nH]c1=O (configuration not stated) | melting point | 118 to 120 °C

Okay, next one:
Prompt: Value lookup for melting point; key = Cc1ccc(C(=O)c2cc(-c3ccc(Cl)cc3)c(N3CCOCC3)s2)cc1
Completion: 190 °C
